Cited source: paper PMC7195491

Molecular target: T1, DIP-α (Drosophila melanogaster)
T1 chain: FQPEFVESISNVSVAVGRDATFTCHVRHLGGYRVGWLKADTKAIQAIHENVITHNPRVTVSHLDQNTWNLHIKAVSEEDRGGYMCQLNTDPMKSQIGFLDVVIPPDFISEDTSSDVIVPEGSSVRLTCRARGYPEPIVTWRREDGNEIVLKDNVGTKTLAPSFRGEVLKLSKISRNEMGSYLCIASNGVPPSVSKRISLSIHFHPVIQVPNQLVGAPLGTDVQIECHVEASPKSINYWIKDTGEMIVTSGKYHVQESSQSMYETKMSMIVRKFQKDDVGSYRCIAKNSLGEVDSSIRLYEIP
Assay: SPR
metric: Kd

Solved cases (5 shown):
binder	meas value
Dpr11 (domain or fragment) PYLDGYATSNVTTQIGTHAYLPCRVKQLGNKSVSWIRLRDGHILTVDRAVFIADQRFLAIKQPDKYWTLQIKYVQARDAGSYECQVSTEPKVSARVQLQVVVPRTEILGEPDRYVKAGSNVVLRCIVRGALEPPTFIMWYHGAEQLAADSRRHRTQLDPNLPEASGEGQSTIGSLIIESAKKRDTGNYTCSPSNSPSATVT	> 500 µM
Dpr10 V31K Q29E (domain or fragment) YQRQSVSNNNHNNAEAKPTHAPPSHYPHGHKWNEPYFDLTMPRNITSLVGKSAYLGCRVKHLGNKTVAWIRHRDLHILTVGTYTYTTDQRFQTSYHRDIDEWTLQIKWAQQRDAGVYECQISTEPKRSYSVNLNIVDLIDAETSDIMQQYYNDDAFYIAENRVYQSSNDEFAGMFGPIQTVAVPTATILGGPDLYVDKGSTINLTCIIKFSPEPPTHIFWYHQDKVLSEETSGGRLKFKTIKSEETKSILLIYDADLLHSGKYSCYPSNTEIASIR	29.2 µM
Dpr10 (domain or fragment) YQRQSVSNNNHNNAEAKPTHAPPSHYPHGHKWNEPYFDLTMPRNITSLVGKSAYLGCRVKHLGNKTVAWIRHRDLHILTVGTYTYTTDQRFQTSYHRDIDEWTLQIKWAQQRDAGVYECQISTQPVRSYSVNLNIVDLIDAETSDIMQQYYNDDAFYIAENRVYQSSNDEFAGMFGPIQTVAVPTATILGGPDLYVDKGSTINLTCIIKFSPEPPTHIFWYHQDKVLSEETSGGRLKFKTIKSEETKSILLIYDADLLHSGKYSCYPSNTEIASIR	1.3 µM
Dpr11 K31V (domain or fragment) PYLDGYATSNVTTQIGTHAYLPCRVKQLGNKSVSWIRLRDGHILTVDRAVFIADQRFLAIKQPDKYWTLQIKYVQARDAGSYECQVSTEPVVSARVQLQVVVPRTEILGEPDRYVKAGSNVVLRCIVRGALEPPTFIMWYHGAEQLAADSRRHRTQLDPNLPEASGEGQSTIGSLIIESAKKRDTGNYTCSPSNSPSATVT	> 300 µM
Dpr10 V31K (domain or fragment) YQRQSVSNNNHNNAEAKPTHAPPSHYPHGHKWNEPYFDLTMPRNITSLVGKSAYLGCRVKHLGNKTVAWIRHRDLHILTVGTYTYTTDQRFQTSYHRDIDEWTLQIKWAQQRDAGVYECQISTQPKRSYSVNLNIVDLIDAETSDIMQQYYNDDAFYIAENRVYQSSNDEFAGMFGPIQTVAVPTATILGGPDLYVDKGSTINLTCIIKFSPEPPTHIFWYHQDKVLSEETSGGRLKFKTIKSEETKSILLIYDADLLHSGKYSCYPSNTEIASIR	11.3 µM

Q: Fill blank: measured Kd of the binder Dpr11 K31V,E29Q (domain or fragment) PYLDGYATSNVTTQIGTHAYLPCRVKQLGNKSVSWIRLRDGHILTVDRAVFIADQRFLAIKQPDKYWTLQIKYVQARDAGSYECQVSTQPVVSARVQLQVVVPRTEILGEPDRYVKAGSNVVLRCIVRGALEPPTFIMWYHGAEQLAADSRRHRTQLDPNLPEASGEGQSTIGSLIIESAKKRDTGNYTCSPSNSPSATVT is ____.
Result: > 300 µM
